# testedSystem: Gal(b1-4)GlcNAc(b1-3)Gal(b1-4)GlcNAc
# assayText: glycan array binding signal (z-score within array); higher = stronger binding
# measurementConditions: glycan notation: IUPAC condensed, linker removed
The sample as a whole holds a higher share of the strongest signals than the screen did.

>  <binder>
LlpA (Arthrobacter sp) (protein) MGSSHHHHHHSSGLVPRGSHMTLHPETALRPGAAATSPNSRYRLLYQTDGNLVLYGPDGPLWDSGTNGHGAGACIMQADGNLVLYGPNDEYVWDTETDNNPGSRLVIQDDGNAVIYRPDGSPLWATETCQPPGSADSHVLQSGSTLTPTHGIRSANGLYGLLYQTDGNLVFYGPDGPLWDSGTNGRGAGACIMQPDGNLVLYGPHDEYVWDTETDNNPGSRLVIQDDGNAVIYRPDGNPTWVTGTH

>  <glycan array binding signal (z-score)>
-0.238

$$$$
